The values you see were collected from paper PMC4336329.

Provide the recorded hERG current change (%, negative = inhibition) at 10uM for the entries that follow.
- MEASURED_TARGET: human ether-à-go-go-related gene (hERG) potassium channel (human);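 note: peak tail current of the secondary pulse compared with the same well before compound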
- Sequence (Q12809 whole entry, looked up): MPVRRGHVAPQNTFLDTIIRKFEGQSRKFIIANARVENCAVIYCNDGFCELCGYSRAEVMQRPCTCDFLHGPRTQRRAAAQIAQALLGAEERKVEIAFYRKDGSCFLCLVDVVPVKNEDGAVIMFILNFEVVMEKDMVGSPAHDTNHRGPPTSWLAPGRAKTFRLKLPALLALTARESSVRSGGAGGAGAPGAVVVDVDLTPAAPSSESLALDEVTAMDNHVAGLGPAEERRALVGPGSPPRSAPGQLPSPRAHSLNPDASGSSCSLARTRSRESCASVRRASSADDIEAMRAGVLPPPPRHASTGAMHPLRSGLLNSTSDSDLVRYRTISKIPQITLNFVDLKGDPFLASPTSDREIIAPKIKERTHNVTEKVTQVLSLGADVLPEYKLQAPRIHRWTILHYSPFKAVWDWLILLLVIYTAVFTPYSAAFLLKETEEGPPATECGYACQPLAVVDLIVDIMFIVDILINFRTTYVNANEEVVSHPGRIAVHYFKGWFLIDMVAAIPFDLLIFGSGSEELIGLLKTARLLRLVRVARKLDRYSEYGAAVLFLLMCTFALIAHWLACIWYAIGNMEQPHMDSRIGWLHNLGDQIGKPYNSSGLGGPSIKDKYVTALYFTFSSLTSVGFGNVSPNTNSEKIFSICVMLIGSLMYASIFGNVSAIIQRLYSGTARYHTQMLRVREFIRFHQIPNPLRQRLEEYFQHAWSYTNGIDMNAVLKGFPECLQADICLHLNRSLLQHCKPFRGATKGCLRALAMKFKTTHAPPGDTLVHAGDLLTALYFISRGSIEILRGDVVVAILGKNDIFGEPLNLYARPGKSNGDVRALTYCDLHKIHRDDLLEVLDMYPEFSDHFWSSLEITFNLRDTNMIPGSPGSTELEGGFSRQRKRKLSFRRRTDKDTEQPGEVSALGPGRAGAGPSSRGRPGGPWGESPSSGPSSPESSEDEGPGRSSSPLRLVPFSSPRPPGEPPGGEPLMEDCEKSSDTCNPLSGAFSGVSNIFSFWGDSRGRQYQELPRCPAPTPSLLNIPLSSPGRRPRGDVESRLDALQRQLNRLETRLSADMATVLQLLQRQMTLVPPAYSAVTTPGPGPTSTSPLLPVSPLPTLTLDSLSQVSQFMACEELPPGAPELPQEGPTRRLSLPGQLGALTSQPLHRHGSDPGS
- ASSAY_PROTOCOL: primary screen, population patch clamp on CHO cells stably expressing hERG; higher = less effect of the substance
About 14,000 (4.5%) of roughly 310,000 compounds showed an effect of 50% or more. Effects have a minus sign here. Many of the other results were omitted from the sample, so strong results are more common in it than they were.
Numbers only, in %.

Solved entries:
QUERY: Suppose we examine the compound Cc1ccc(NC(=O)c2ccccc2NS(=O)(=O)c2ccc(F)cc2)cc1S(=O)(=O)N1CCCCC1 ; what hERG current change (%, negative = inhibition) at 10uM value has been reported?
RESULT: 3.17

QUERY: Suppose we examine the compound O/N=C/c1ccccc1OCc1ccc(Cl)cc1 ; what hERG current change (%, negative = inhibition) at 10uM value has been reported?
RESULT: 5.5

QUERY: Suppose we examine the compound O=C(O)c1ccccc1N1C(=O)C2C3c4ccccc4C(Br)(c4ccccc43)C2C1=O (centres unmarked) ; what hERG current change (%, negative = inhibition) at 10uM value has been reported?
RESULT: 18.4

QUERY: Suppose we examine the compound Cc1ccc(C(=O)O)cc1NC(=S)NCCc1ccccc1 ; what hERG current change (%, negative = inhibition) at 10uM value has been reported?
RESULT: 0.261

QUERY: Suppose we examine the compound CN(C)C(=O)[C@@H]1C[C@H]1[C@@H](NC(=O)OCc1ccccc1)c1ccccc1 ; what hERG current change (%, negative = inhibition) at 10uM value has been reported?
RESULT: -64.2

QUERY: Suppose we examine the compound CCC(CC)c1nnc(NC(=O)C2CC(=O)N(CCc3ccc(OC)c(OC)c3)C2)s1 (centres unmarked) ; what hERG current change (%, negative = inhibition) at 10uM value has been reported?
RESULT: -0.537

QUERY: Suppose we examine the compound COc1ccc(OCC(N)=O)cc1 ; what hERG current change (%, negative = inhibition) at 10uM value has been reported?
RESULT: 8.9

QUERY: Suppose we examine the compound CCCCNc1nc2c(c(=O)[nH]c(=O)n2C)n1CCOc1ccccc1 ; what hERG current change (%, negative = inhibition) at 10uM value has been reported?
RESULT: 3.6

Each compound below has a recorded value; state its hERG current change (%, negative = inhibition) at 10uM.
1. CN1CCCN(C(=O)/C=C/c2ccc(Cl)cc2Cl)CC1.Cl
2. Cc1ccc(OCC(=O)N2CCN(Cc3ccc4c(c3)OCO4)CC2)cc1C
3. O=c1oc2ccccc2c2c1nnn2CCO
4. NC(=O)C1CCN(Cc2nc(-c3ccccc3)no2)CC1
5. Cc1cc(C)n2nc(SCC(=O)c3cc(C)n(CC4CCCO4)c3C)nc2n1 (centres unmarked)
6. CC1CCC(C(=O)c2c(O)c3ccccc3oc2=O)CC1 (centres unmarked)
7. O=C1CN(C(=O)/C=C/c2ccc(Cl)cc2Cl)CCN1
8. C/C(=N\Nc1nc(C(C)(C)C)cs1)c1ccccc1

RESULT:
-67
-24.6
8.06
-14.1
1.05
15.9
-19.2
16.4

Each compound below has a recorded value; state its hERG current change (%, negative = inhibition) at 10uM.
1. Cc1ccc(NC(=O)Cn2nnc(-c3ccc4c(c3)OCO4)n2)cc1F
2. O=C1C2C3C=CC(C4CC34)C2C(=O)N1c1cc(Cl)ccn1 (centres unmarked)
3. O=C(N[C@@H](c1ccccc1)[C@@H]1C[C@H]1C(=O)O)OCc1ccccc1
4. Cc1cc(=O)oc2cc(OCC(=O)N3CCN(Cc4ccc5c(c4)OCO5)CC3)ccc12
5. Cc1cc(C)n2nc(SCC(=O)c3cc(C)n(-c4cc(C)on4)c3C)nc2n1
6. COc1cc2c3nnc(-c4ccc(F)cc4)c-3cn(Cc3ccc(C)cc3)c2cc1OC
7. COC(=O)c1ccccc1NC(=O)c1cc[n+](C)cc1
8. COc1ccc(-c2c(S(=O)(=O)c3ccccc3)cnn2-c2ccccc2)cc1

RESULT:
1: 11; 2: 2.55; 3: 15.1; 4: -42.9; 5: -67.5; 6: 2.79; 7: 11.8; 8: -2.43

Each compound below has a recorded value; state its hERG current change (%, negative = inhibition) at 10uM.
1. CCCCC/S(CC1CC1(Cl)Cl)=N\S(=O)(=O)c1ccc(C)cc1 (centres unmarked)
2. O=C(/C=C/c1ccc(Cl)cc1)N1CCN(c2ccccc2[N+](=O)[O-])CC1
3. Cc1cccc(C)c1NC(=O)CSc1nnnn1C

RESULT:
1: 15.8; 2: -75.4; 3: -1.61
